Measured values drawn from patent US20140179896A1 for this set.

STUDY_TARGET: T1, human vascular endothelial growth factor receptor-2 Fc chimera (KDR-Fc) (human, UniProt P35968 20-764)
T1 construct: range 1-764; also called human VEGFR-2; VEGF-R2-Fc; not shown: human IgG1 Fc
T1 sequence (P35968 20-764 limits assumed, change not shown, form in doubt): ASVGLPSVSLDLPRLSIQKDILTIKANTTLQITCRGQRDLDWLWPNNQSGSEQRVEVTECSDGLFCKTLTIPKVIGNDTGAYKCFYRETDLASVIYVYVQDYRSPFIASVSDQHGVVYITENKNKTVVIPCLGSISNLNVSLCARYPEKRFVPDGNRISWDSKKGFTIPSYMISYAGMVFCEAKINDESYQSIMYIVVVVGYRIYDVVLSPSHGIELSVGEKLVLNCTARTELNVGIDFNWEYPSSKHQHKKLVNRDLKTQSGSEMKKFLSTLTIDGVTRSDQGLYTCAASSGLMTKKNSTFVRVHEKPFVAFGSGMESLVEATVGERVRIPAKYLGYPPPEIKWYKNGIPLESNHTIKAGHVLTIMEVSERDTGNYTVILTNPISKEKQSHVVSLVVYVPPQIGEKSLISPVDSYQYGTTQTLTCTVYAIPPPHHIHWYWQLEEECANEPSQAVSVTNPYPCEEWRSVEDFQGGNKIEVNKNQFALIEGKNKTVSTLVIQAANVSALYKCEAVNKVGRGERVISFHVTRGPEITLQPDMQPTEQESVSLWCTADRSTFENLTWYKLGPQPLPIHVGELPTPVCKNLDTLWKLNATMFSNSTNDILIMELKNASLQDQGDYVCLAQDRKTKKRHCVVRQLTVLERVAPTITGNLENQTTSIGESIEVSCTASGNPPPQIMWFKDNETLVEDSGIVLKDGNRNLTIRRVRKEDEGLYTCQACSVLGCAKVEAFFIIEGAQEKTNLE
PROTOCOL: radioactive equilibrium binding, 1 nM KDR-Fc
Experimental: To prepare ³⁵S-labeled binding proteins for analysis, mRNA was prepared as described above for RNA-protein fusion production but the linker ligation step was omitted. […] 50 μA of the reaction mixture and elution were dried onto a LumaPlate-96 (Packard) and the amount of ³⁵S on the plate was measured using a TopCount NXT instrument (Packard). […] Data was analyzed using the GraphPad Prizm software (GraphPad Software, Inc, San Diego, Calif.), fitted using a one site, non-linear binding equation.
# Lookup of reported Binding to 1 nM KDR, % keyed by entry
Give the value in % but do not write % after it.

Would you please look over these solved cases?
BINDER	PROPERTY	UOM	OBS_VALUE
3′E3 PR4 (designed binder, Del 1-8) EVVAATPTSLLISWRHPHFPTRYYRITYGETGGNSPVQEFTVPLQPPTATISGLKPGVDYTITGYAVTMAQYGRELLTPISINYRT	Binding to 1 nM KDR, %	%	41
2′Del F1 PR4 (designed binder, Del 1-8) EVVAATPTSLLISWRHPHFPTRYYRITYGETGGNSPVQEFTVPLQPPTATISGLKPGVDYTITGYAVTRDQYEHELLTPISINYRT	Binding to 1 nM KDR, %	%	20
3′B10 PR4 (designed binder, Del 1-8) EVVAATPTSLLISWRHPHFPTRYYRITYGETGGNSPVQEFTVPLQPPTATISGLKPGVDYTITGYAVTLAQTGRELLTPISINYRT	Binding to 1 nM KDR, %	%	21
2′Del H12 PR4 (designed binder, Del 1-8) EVVAATPTSLLISWRHPHFPTRYYRITYGETGGNSPVQEFTVPLQPPTATISGLKPGVDYTITGYAVTAGGNGHELLTPISINYRT	Binding to 1 nM KDR, %	%	24
3′A6 PR4 (designed binder, Del 1-8) EVVAATPTSLLISWRHPHFPTRYYRITYGETGGNSPVQEFTVPLQPPTATISGLKPGVDYTITGYAVTLAQNGHELLTPISINYRT	Binding to 1 nM KDR, %	%	19
2′Del A11 PR4 (designed binder, Del 1-8) EVVAATPTSLLISWRHPHFPTRYYRITYGETGGNSPVQEFTVPLQPPTATISGLKPGVDYTITGYAVTEDIRVLWLNTTISINYRT	Binding to 1 nM KDR, %	%	16

Let us move to another entry and its Binding to 1 nM KDR, %.
Query string: Fill blank: measured Binding to 1 nM KDR, % of the binder 4′C9 PR4 (designed binder, Del 1-8) EVVAATPTSLLISWRHPHFPTRYYRITYGETGGNSPVQEFTVPLQPPTATISGLKPGVDYTITGYAVTLGPNDHELMTPISINYRT is ____.
Result string: 29
